System: CP260
TEST: qHTS profiling for inhibitors of Plasmodium falciparum proliferation (AID 504749); further: nearly all actives have a fitted effect of over 60% in size
MEASUREMENT PARAMETERS: P. falciparum in erythrocytes, SYBR Green DNA, 72 h; series mostly up to 28.7 µM
Inconclusive results are not listed. The source made the active and inactive calls. The call rests on the fitted dose curve; in most records, active means well fitted inhibition curve with a large enough effect; inconclusive means small, poorly fitted or top-dose-only effect; inactive means flat fitted curve, though single readings scatter.
Please answer using one outcome listed in class 1 = active, class 0 = inactive

Kindly provide the recorded test outcome for the following compound: Cc1cc(N)c2cc(NC(=O)Nc3ccc4nc(C)cc(N)c4c3)ccc2n1
class 1

Would you kindly repeat that for CCN1CCC[C@H]1CNC(=O)c1c(OC)ccc(Br)c1OC ?
class 0

Input CN1CCC[C@@H]1c1cccnc1
class 0

Another compound: Cc1c(C)n(Cc2ccccc2)c2ccc(C(=O)OCCN(C)C)cc12
class 0

Query COc1ccc(CN2CCN(C(c3ccc(F)cc3)c3ccc(F)cc3)CC2)c(OC)c1OC next
class 1

// repeat for CCN1CCCC1=O and report
class 0

Proceed to CC(O)C(=O)O (stereo unspecified)
class 0

// next record COC(=O)[C@@H]1CC2=CC(=O)CC[C@]2(C)[C@@]23O[C@@H]2C[C@@]2(C)[C@@H](CC[C@@]24CCC(=O)O4)[C@H]13
class 0

Again, but for CN(C)CC/C=C1\c2ccccc2Sc2ccc(Cl)cc21
class 1

Subsequent entry: CN(C)/N=N/c1nc[nH]c1C(N)=O
class 0

Consider next the compound O=C(Nc1ccc(Cl)c(Cl)c1)C1CC1 in the same way.
class 0

Now try CCCn1c(=O)[nH]c(=O)c2[nH]cnc21 .
class 0

Then CCCCOc1ccc(OCCCN2CCOCC2)cc1 ?
class 0

Same question, O=C(O)CCCCC(=O)O this time
class 0

Moving on to NC(=O)C(=O)N/N=C/c1ccc([N+](=O)[O-])o1
class 0

Entry O=S1(=O)c2cccc3cccc(c23)N1CCCN1CCN(c2ccc(F)cc2)CC1 please
class 0

Follow-up item: O=C1[C@H]2CCCC[C@H]2C(=O)N1CCCCN1CCN(c2nsc3ccccc23)CC1
class 0

Can you handle CCCCCC=CCC=CCCCCCCCC(=O)OCC next?
class 0

Same question, CCCCCCc1ccc(O)cc1O this time
class 0

Entry to check: CC(C)COC(=O)c1ccc(N)cc1
class 0

What about this compound? COc1cc(NS(C)(=O)=O)ccc1Nc1c2ccccc2nc2ccccc12
class 1

Continue with O=C(O)c1cc2cc(Cc3cccnc3)ccc2o1
class 0

Then this compound: Nc1cc(Cl)c(NC2=NCCN2)c(Cl)c1
class 0

Another compound: Cc1cccn2c(=O)c(-c3nnn[nH]3)cnc12
class 0

Item: Cc1c(F)c(N2CCNC(C)C2)cc2c1c(=O)c(C(=O)O)cn2C1CC1 (stereo unspecified)
class 0

Now this one: C=CCc1ccc(O)c(OC)c1
class 0

* * *

Tested on: AA1029
TEST: qHTS profiling for inhibitors of Plasmodium falciparum proliferation (AID 504749); further: nearly all actives have a fitted effect of over 60% in size
MEASUREMENT PARAMETERS: P. falciparum in erythrocytes, SYBR Green DNA, 72 h; series mostly up to 28.7 µM
Inconclusive results are not listed. Activity calls are given as the source filed them. Calls come from the whole dose curve; as a rule, active = well fitted inhibition curve with a large enough effect; inconclusive = small, poorly fitted or top-dose-only effect; inactive = flat fitted curve, though single readings scatter.
Can you answer with just one of these options? active, inactive

What is the recorded call for this compound in the test? O=S1(=O)c2cccc3cccc(c23)N1CCCN1CCN(c2ccc(F)cc2)CC1
inactive

What do we get for OC(CCN1CCCCC1)(c1ccccc1)c1ccccc1 ?
active

Please give the result for CCN(CC)CCOc1ccc(C(O)(Cc2ccc(Cl)cc2)c2ccc(C)cc2)cc1 (stereo unspecified) too.
active

And the next one, CO/N=C1\CN(c2nc3c(cc2F)c(=O)c(C(=O)O)cn3C2CC2)CC1CN (stereo unspecified) ?
active

Now the compound NC(CO)(CO)CO
inactive

What do you get for CCCCOc1ccc(OCCCN2CCOCC2)cc1 ?
inactive

* * *

TEST: qHTS of pediatric cancer cell lines to identify multiple opportunities for drug repurposing: Confirmatory screen for MG 63 (6-TG R) cells (AID 1347119); further: nearly all actives have a fitted effect of over 55% in size
MEASUREMENT PARAMETERS: MG-63 (6-TG resistant) osteosarcoma viability; series mostly up to 45.9 µM
Inconclusive results are not listed. Calls of active or inactive are those of the source. Calls come from the whole dose curve; as a rule, active = well fitted cell-killing curve with a large enough effect; inconclusive = small, poorly fitted or top-dose-only effect, or effect the other way; inactive = no such curve, though single readings can be large or run the other way.
Please state which outcome applies, choosing from 1 for active, -1 for inactive

Fill in: this test's call for CC(C)(C(=O)c1cccnc1)c1cccnc1 is ___
-1

Then what about the compound CCC(C(=O)OCCN(CC)CC)c1ccccc1 (centres undefined) ?
-1

Same read-out for COCc1c(C(C)C)nc(C(C)C)c(/C=C/[C@@H](O)C[C@@H](O)CC(=O)O)c1-c1ccc(F)cc1 ?
1

Moving on to the next compound: COc1cccc2c1C(=O)c1c(O)c3c(c(O)c1C2=O)C[C@@](O)(C(=O)CO)C[C@@H]3O[C@H]1C[C@H](N)[C@H](O)[C@H](C)O1
1

CC(=O)OCC(=O)[C@@]1(O)CC[C@H]2[C@@H]3CCC4=CC(=O)C=C[C@]4(C)[C@H]3[C@@H](O)C[C@@]21C , same question.
-1

Next up: CCOc1ccc2nc3cc(N)ccc3c(N)c2c1
-1

// next record C[C@@H]1CN(CCCn2c3ccccc3c3ccccc32)C[C@H](C)N1
-1

What do you have for C=C1C[C@H]2[C@@H]3C=C(C)C4=CC(=O)CC[C@]4(C)[C@H]3CC[C@]2(C)[C@@]1(OC(C)=O)C(C)=O ?
-1

Proceed to O=C(CCCN1CCC(O)(c2ccc(Br)cc2)CC1)c1ccc(F)cc1
-1

* * *

System: PC26
TEST: qHTS profiling for inhibitors of Plasmodium falciparum proliferation (AID 504749); further: nearly all actives have a fitted effect of over 60% in size
MEASUREMENT PARAMETERS: P. falciparum in erythrocytes, SYBR Green DNA, 72 h; series mostly up to 28.7 µM
Results filed as inconclusive are left out. Active and inactive are the calls of the source. Calls come from the whole dose curve; as a rule, active = well fitted inhibition curve with a large enough effect; inconclusive = small, poorly fitted or top-dose-only effect; inactive = flat fitted curve, though single readings scatter.
Answer with one of the outcomes given here: true (1) (active), false (0) (inactive)

What did the test return for NC(=NCCCCCCN=C(N)/N=C(\N)Nc1ccc(Cl)cc1)/N=C(\N)Nc1ccc(Cl)cc1 ?
true (1)

How about this compound: COc1ccc(/C=C/C(=O)c2ccc(OC)cc2OC)cc1
true (1)

Same read-out for O=C1c2ccccc2C(=O)C1c1ccccc1 ?
false (0)

// same read-out, input: Cc1ccc(O)c2ncccc12
false (0)

Let us now turn to CCn1cc(C(=O)O)c(=O)c2cnc(N3CCCC3)nc21
false (0)

Consider next the compound CC(Cc1cccc(C(F)(F)F)c1)NCCOC(=O)c1ccccc1 (configuration not stated) in the same way.
false (0)

Would you mind doing C[C@H]1[C@H](NC(=O)/C(=N/OC(C)(C)C(=O)O)c2csc(N)n2)C(=O)N1S(=O)(=O)O (stereo in doubt) as well?
false (0)

Okay, and NCCCC[C@H](N[C@@H](CCc1ccccc1)C(=O)O)C(=O)N1CCC[C@H]1C(=O)O ?
false (0)

What would you report for CCOC(=O)COc1ccc2c(C)c(CCN(CC)CC)c(=O)oc2c1Cl ?
false (0)

And the next one, CN(C(=O)CN(CCO)CC(=O)N(C)C(C)(C)Cc1ccccc1)C(C)(C)Cc1ccccc1 ?
false (0)

Record: Nc1ccc(/C=C/c2ccc(N)cc2S(=O)(=O)O)c(S(=O)(=O)O)c1
false (0)

Also check C[C@]12CCC(=O)C=C1CC[C@H]1[C@@H]3CC[C@](O)(C(=O)CO)[C@@]3(C)C[C@H](O)[C@@]12F
false (0)

And then O=c1c(-c2ccccc2)c1-c1ccccc1 , what is it?
true (1)

Next entry: O=C(CCN1CCC(c2ccccc2)C1)c1ccc2c(c1)OCCO2 (configuration not stated)
false (0)

Input CCCN1CCCC[C@H]1C(=O)Nc1c(C)cccc1C
false (0)

Now consider NC(CO)(CO)CO .
false (0)

Next: CCCCCC=CCC=CCCCCCCCC(=O)OCC
false (0)

Param item: Nc1ccc(C(=O)Nc2ccccc2N)cc1
false (0)

Thanks! And CCOC(=O)OC(C)OC1=C(C(=O)Nc2ccccn2)N(C)S(=O)(=O)c2ccccc21 (configuration not stated) ?
false (0)

Now consider Cc1c(N(C)CS(=O)(=O)O)c(=O)n(-c2ccccc2)n1C .
false (0)

Queued: C=CCc1ccc(O)c(OC)c1
false (0)

Let us now turn to CC1=C(C(=O)OC(C)C)C(c2cccc([N+](=O)[O-])c2)C(C(=O)OC2CN(C(c3ccccc3)c3ccccc3)C2)=C(N)N1 (configuration not stated)
true (1)

* * *

TEST: Drug repurposing screens with cells derived from glioblastoma tumor samples (AID 1345199); further: on the % scale 0 is the no-effect control and ±100 the full control effect; nearly all actives have a fitted effect of over 40% in size
MEASUREMENT PARAMETERS: GBM patient neurospheres viability, ATP luminescence, 48 h; at 21.2 µM (top of the series); tumour line B
Records with an inconclusive call do not appear.
ENDPOINT NAME: activity, negative = cell killing (%)
API: value field is a number in %; no unit string.

Fill in the blank: the reported activity, negative = cell killing of C[C@]12CC[C@H]3[C@@H](CCC4=CC(=O)CC[C@@]43C)[C@@H]1CC[C@@H]2C(=O)CO is ____.
-21.2

Next molecule up: CCCCOc1cc(C(=O)NCCN(CC)CC)c2ccccc2n1
-15.3

Again, but for CN1CCN(CCCN2c3ccccc3Sc3ccc(S(=O)(=O)N(C)C)cc32)CC1
-12.4

Field entry: CCOC(=O)n1ccn(C)c1=S
-8.85

Then what about the molecule CCCC(=O)Nc1ccc(OCC(O)CNC(C)C)c(C(C)=O)c1 (stereo not given) ?
-3.87

// repeat for CC(=O)OCC(=O)[C@@]1(O)[C@H](C)C[C@H]2[C@@H]3CCC4=CC(=O)C=C[C@]4(C)[C@@]3(F)[C@@H](O)C[C@@]21C and report
-13.3

And what about the molecule CC1(C)O[C@@H]2C[C@H]3[C@@H]4C[C@H](F)C5=CC(=O)C=C[C@]5(C)[C@H]4[C@@H](O)C[C@]3(C)[C@]2(C(=O)CO)O1 ?
2.57

Also check CC(=O)N(O)CCCCCNC(=O)CCC(=O)N(O)CCCCCNC(=O)CCC(=O)N(O)CCCCCN
-16.9

Same thing, different molecule: O=C(OCCOCCO)c1ccccc1Nc1cccc(C(F)(F)F)c1
0.602

Now give it for CCn1cc(C(=O)O)c(=O)c2cnc(N3CCCC3)nc21 too.
-5.2

Follow-up item: CC(=O)c1ccc2c(c1)N(CCCN1CCC(CCO)CC1)c1ccccc1S2
-21.7

// repeat for O=C(OCC(O)CO)c1ccccc1Nc1ccnc2cc(Cl)ccc12 (stereo not given) and report
-17

Also need Cc1ccnc(NS(=O)(=O)c2ccc(N)cc2)n1 , thanks.
-5.77

// same read-out, input: CC(=O)OCC(=O)[C@@]12OC(C)(C)O[C@@H]1C[C@H]1[C@@H]3C[C@H](F)C4=CC(=O)C=C[C@]4(C)[C@@]3(F)[C@@H](O)C[C@@]12C
-15.5

Okay, and O=C1c2ccccc2C(=O)C1c1ccccc1 ?
-2.67

Now consider CCN(CC)C(=O)N1CCN(C)CC1 and answer again.
-9.76

Can you check NC(=O)c1cc[n+](CC2=C(C(=O)[O-])N3C(=O)[C@@H](NC(=O)Cc4cccs4)[C@H]3SC2)cc1 next?
-10.7

Next entry: C[C@@H](CN(C)C)CN1c2ccccc2Sc2ccccc21
-28.5

Entry to check: COc1c2occc2c(OC)c2c(=O)cc(C)oc12
-15.3

COc1cc(N)c(Cl)cc1C(=O)NC1CCN(CCCOc2ccc(F)cc2)CC1OC (stereo not given) , same question.
-11.4

Measured values drawn from PubChem BioAssay (NCATS) for this set.
